# System: dengue virus type 2
# ASSAY_INFO: Antiviral activity against Dengue virus 2 infected in human Huh-7 cells assessed as clearance of viral RNA relative to control
# Type: functional
# Design: concentration or dose not given beside the values
EXPERIMENTAL_READOUT: Activity

1) N/C(=N\O)c1cccc(CN2CCc3cn(Cc4cccc(Br)c4)c4cc(-c5cccc(/C(N)=N/O)c5)cc(c34)C2=O)c1; >95%
2) N/C(=N\O)c1ccc(CNC(=O)c2cn(Cc3cccc(Br)c3)c3ccc(-c4cccc(/C(N)=N/O)c4)cc23)cc1; >95%
3) N/C(=N\O)c1cccc(NC(=O)c2cn(Cc3ccc(Br)cc3)c3ccc(-c4cccc(/C(N)=N/O)c4)cc23)c1; >95%
4) N/C(=N\O)c1ccc(CN2CCc3cn(Cc4ccc(Br)cc4)c4cc(-c5cccc(/C(N)=N/O)c5)cc(c34)C2=O)cc1; >95%
5) N/C(=N\O)c1cccc(CNC(=O)c2cn(Cc3cccc(Br)c3)c3cc(-c4cccc(/C(N)=N/O)c4)ccc23)c1; >95%
6) N/C(=N\O)c1ccc(CN2CCc3cn(Cc4cccc(Br)c4)c4cc(-c5cccc(/C(N)=N/O)c5)cc(c34)C2=O)cc1; >95%
7) N/C(=N\O)c1cccc(CNC(=O)c2cn(Cc3cccc(Br)c3)c3ccc(-c4cccc(/C(N)=N/O)c4)cc23)c1; >95%
8) N/C(=N\O)c1ccc(CN2CCc3cn(Cc4ccc(Br)nc4)c4cc(-c5cccc(/C(N)=N/O)c5)cc(c34)C2=O)cc1; >95%
9) N/C(=N\O)c1ccc(CN2CCc3cn(Cc4ccc(Br)cc4)c4cc(-c5ccc(/C(N)=N/O)s5)cc(c34)C2=O)cc1; >95%

###

# System: Zika virus
# ASSAY_INFO: Antiviral activity Zika virus by cell based assay
# Type: functional, organism-based
EXPERIMENTAL_READOUT: EC50

1. N/C(=N\O)c1ccc(CN2CCc3cn(Cc4ccc(Br)cc4)c4cc(-c5cccc(/C(N)=N/O)c5)cc(c34)C2=O)cc1; 1760 nM
2. N/C(=N\O)c1ccc(CN2CCc3cn(Cc4ccc(Br)cc4)c4cc(-c5ccc(/C(N)=N/O)s5)cc(c34)C2=O)cc1; 1420 nM
3. N/C(=N\O)c1ccc(CN2CCc3cn(Cc4cccc(Br)c4)c4cc(-c5cccc(/C(N)=N/O)c5)cc(c34)C2=O)cc1; 3400 nM
4. C#C[C@@]1(O)[C@H](O)[C@@H](CO)O[C@H]1n1ccc2c(N)ncnc21; 120 nM

###

Entries and their pEC50
# Tested on: dengue virus type 2
# ASSAY_INFO: Antiviral activity Dengue virus 2 by cell based assay
# Assay type: functional, organism-based
pEC50: −log10 of the molar value.
EXPERIMENTAL_READOUT: pEC50

1) N/C(=N\O)c1ccc(CN2CCc3cn(Cc4cccc(Br)c4)c4cc(-c5cccc(/C(N)=N/O)c5)cc(c34)C2=O)cc1; 6.18
2) N/C(=N\O)c1cccc(-c2ccc3c(C(=O)N4CCN(c5cccc(/C(N)=N/O)c5)CC4)cn(Cc4ccc(Br)cc4)c3c2)c1; 5.95
3) N/C(=N\O)c1cccc(NC(=O)c2cn(Cc3cccc(Br)c3)c3ccc(-c4cccc(/C(N)=N/O)c4)cc23)c1; 5.74
4) N/C(=N\O)c1cccc(NC(=O)c2nn(Cc3cccc(Br)c3)cc2NC(=O)c2cccc(/C(N)=N/O)c2)c1; 5.15
5) C#C[C@@]1(O)[C@H](O)[C@@H](CO)O[C@H]1n1ccc2c(N)ncnc21; 6.19
6) N/C(=N\O)c1ccc(CN2CCc3cn(Cc4ccc(Br)cc4)c4cc(-c5cccc(/C(N)=N/O)c5)cc(c34)C2=O)cc1; 7.00
7) N/C(=N\O)c1cccc(CN2CCc3cn(Cc4cccc(Br)c4)c4cc(-c5cccc(/C(N)=N/O)c5)cc(c34)C2=O)c1; 5.87
8) N/C(=N\O)c1cccc(NC(=O)c2cn(CCn3cc(Br)cn3)c3ccc(-c4cccc(/C(N)=N/O)c4)cc23)c1; 5.74
9) N/C(=N\O)c1cccc(-c2ccc3c(C(=O)N4CCN(c5cccc(/C(N)=N/O)c5)CC4)cn(Cc4ccc(Br)nc4)c3c2)c1; 6.00
10) N/C(=N\O)c1ccc(CN2CCc3cn(Cc4ccc(Br)cc4)c4cc(-c5ccc(/C(N)=N/O)s5)cc(c34)C2=O)cc1; 6.21
11) N/C(=N\O)c1cccc(NC(=O)c2cn(Cc3ccc(Br)cc3)c3ccc(-c4cccc(/C(N)=N/O)c4)cc23)c1; 5.35
12) N/C(=N\O)c1cccc(NC(=O)c2nn(Cc3cccc(Br)c3)c3ccc(-c4cccc(/C(N)=N/O)c4)cc23)c1; 5.66
13) N/C(=N\O)c1ccc(CN2CCc3cn(Cc4ccc(Br)nc4)c4cc(-c5cccc(/C(N)=N/O)c5)cc(c34)C2=O)cc1; 6.02

This collection of values is drawn from ChEMBL document CHEMBL5505984.
